- Test target: T1, recombinant human PD-L2 (human PD-L2 antigen) (human, UniProt Q9BQ51 20-219, limits assumed)
- T1 construct: The Biacore analyte and the ELISA antigen are only called human PD-L2 antigen / recombinant hPD-L2; Whole entry named; also called hPD-L2; recombinant hPD-L2
- T1 sequence (looked up): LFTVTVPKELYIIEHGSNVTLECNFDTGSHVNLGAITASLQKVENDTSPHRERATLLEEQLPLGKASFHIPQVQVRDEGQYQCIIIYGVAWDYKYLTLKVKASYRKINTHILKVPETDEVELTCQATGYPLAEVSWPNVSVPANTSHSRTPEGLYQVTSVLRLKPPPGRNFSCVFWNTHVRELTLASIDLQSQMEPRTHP
- Experiment: SPR (Biacore 8K), single cycle kinetics, antibody in culture supernatant, human PD-L2 antigen
Reported property: koff (s⁻¹)
Give bare numbers, in s⁻¹.

# lookup: koff of VH6/VK3 (antibody, V domains shown, hIgG1 backbone, CHO expressed) VH: QVQLVQSGAEVKKPGSSVKVSCKASGYSFSNYFIEWVKQPPGKGLEWIGLNIPGSGGSNYAEKFKGRVTITADKSTSTAYMELSSLRSEDTAVYYCARRRLPPDWYFDVWGQGTTVTVSS VL: DVVMTQSPLSLPVTLGQPASISCRSSQSLVHSGGNTYLHWYQQKPGQPPKLLIYKVSNRFSGVPDRFSGSGSGTDFTLKISRVEAEDVGVYFCSQSTHVPWTFGGGTKVEIK
0.000444
